// values below are reported pIC50
Biological target: hSERT transporter (Homo sapiens)
Construct: expressed in transfected cells; membranes prepared
Assay: Human serotonin transporter (hSERT) scintillation proximity assay, competition with [3H]-Citalopram
Assay type: binding
To interpret pIC50, take it as minus log10 of a concentration measured in moles per litre.

                                   compound  assay_endpoint  measured_value
0  CC(C)(C)CC[C@]1(C(=O)c2ccc(Cl)c(Cl)c2)CCCNC1           pIC50            7.84
1  CCCC1(C(=O)c2ccc(Cl)c(Oc3ccc(F)cc3)c2)CCNC1 (centres unmarked)           pIC50            7.62
2  CCCC1(C(=O)c2ccc(-n3ccnc3)c(Br)c2)CCCNC1 (centres unmarked)           pIC50            7.04
3  CC(C)CC1(C(=O)c2ccc(Cl)c(Oc3ccccc3)c2)CCNC1 (centres unmarked)           pIC50            8.43

// moving on: another record for pIC50
Query block: Given `CCCC[C@]1(C(=O)c2ccc(Cl)c(Cl)c2N)CC2CC[C@H]1N2` , state its recorded pIC50.
Result block: 7.08

----------
This section presents compounds with their documented IC50 values.
Target: hSERT transporter (Homo sapiens, UniProt P31645)
Construct: expressed in transfected cells; membranes prepared
Sequence (P31645 whole entry): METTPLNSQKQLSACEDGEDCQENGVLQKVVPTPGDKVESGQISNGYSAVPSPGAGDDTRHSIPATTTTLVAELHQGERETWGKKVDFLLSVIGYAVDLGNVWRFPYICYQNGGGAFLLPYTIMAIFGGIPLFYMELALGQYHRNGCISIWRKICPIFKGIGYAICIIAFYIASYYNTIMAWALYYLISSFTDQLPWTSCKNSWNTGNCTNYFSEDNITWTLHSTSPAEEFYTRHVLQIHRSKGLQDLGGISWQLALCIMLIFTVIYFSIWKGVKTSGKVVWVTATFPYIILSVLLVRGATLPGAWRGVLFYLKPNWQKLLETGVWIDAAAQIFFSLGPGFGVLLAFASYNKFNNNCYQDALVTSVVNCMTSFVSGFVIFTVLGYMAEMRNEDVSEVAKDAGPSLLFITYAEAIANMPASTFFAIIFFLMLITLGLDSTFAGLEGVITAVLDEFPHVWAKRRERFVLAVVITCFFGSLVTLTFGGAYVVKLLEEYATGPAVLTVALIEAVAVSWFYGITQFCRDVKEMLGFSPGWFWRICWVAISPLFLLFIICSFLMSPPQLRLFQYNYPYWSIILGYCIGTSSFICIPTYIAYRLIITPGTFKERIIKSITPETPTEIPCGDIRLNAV
Assay: Human serotonin transporter (hSERT) scintillation proximity assay, competition with [3H]-Citalopram
Type: binding
Kindly answer with a numeric value in nM, unit omitted.

Query block: Which IC50 reading was recorded for the compound `CC(C)CC[C@@]1(C(=O)c2cc(F)c(N)c(Cl)c2)CCNC1` ?
Result block: 3.31

Query block: Fill in the blank: the reported IC50 of CCCC1(C(=O)c2ccc(Cl)c(Oc3ccccc3F)c2)CCNC1 (centres unmarked) is ____.
Result block: 47.9

Query block: GET /values?readout=IC50&item= `CC(C)C[C@@]1(C(=O)c2cc(F)c(N)c(Cl)c2)CCNC1`
Result block: 4.79

Query block: Reported IC50 for CCCC1(C(=O)c2ccc(Cl)c(-c3ccn[nH]3)c2)CCCNC1 (centres unmarked) : what is it?
Result block: 7.76

Query block: Entry under review: `CC(C)(C)CC[C@@]1(C(=O)c2cc(F)c(N)c(Cl)c2)CCNC1` . Reported IC50?
Result block: 75.9

----------
Molecular target: hSERT transporter (Homo sapiens, UniProt P31645)
Construct: expressed in transfected cells; membranes prepared
Test: Human serotonin transporter (hSERT) scintillation proximity assay, competition with [3H]-Citalopram
Type: binding
Assay endpoint: IC50 (nM)
Your answer should be a plain number; it is taken to be in nM.

>>> print(df.to_string())
                                   molecule                                       tgt  measured_value
0  CCCC1(C(=O)c2ccc(Cl)c(OCCC(C)(C)C)c2)CCNC1 (stereo not shown) [Compound 11]  hSERT transporter (Homo sapiens, UniProt P31645)            52.5
1  CC(C)C[C@@]1(C(=O)c2ccc(Cl)c(Cl)c2)CC[C@@H]2CC[C@H]1N2 [Compound 47]  hSERT transporter (Homo sapiens, UniProt P31645)            7.94
2  CC[C@@]1(C(=O)c2ccc(Cl)c(Cl)c2)CC[C@@H]2CC[C@H]1N2C [Compound 53]  hSERT transporter (Homo sapiens, UniProt P31645)            41.7

From here, focus on the item given below.
Query block: Sample CNc1ccc(C(=O)C2(CC(C)C)CCNCC2)cc1Cl [Compound 44] — what was its IC50?
Result block: 0.724
